test system: SF-268; test: NCI tumour cell line growth inhibition, 48 h
Active and inactive are the calls of the source. Cut-off read from the data, not from the text of the source: active = GI50 up to about 1.1 µM and inactive = higher.
# GI50 per record follows
metric.name: GI50

- COc1cccc(/C=C2/Sc3scc(-c4ccccc4)[n+]3C2=O)c1O: 41.2 µM (inactive)
- COC(=O)C1=C(\O)C[C@@]2(C)CC[C@@H](C(=O)OC)C2C/C=C\1C(=O)OC (some centres undefined): 70.5 µM (inactive)
- Cc1c(N)nc(C2CC(=O)N2CC(N)C(N)=O)nc1C(=O)NC(C(=O)NC(C)C(O)C(C)C(=O)NC(C(=O)NCCc1nc(-c2nc(C(=O)NCCNCC(C)O)cs2)cs1)C(C)O)C(OC1OC(CO)C(O)C(O)C1OC1OC(CO)C(O)C(OC(N)=O)C1O)c1c[nH]cn1 (centres undefined): 0.5 µM (active)
- CN1CCOC(c2ccccc2)O1 (centres undefined): > 100 µM (inactive)

---

system: HOP-62; experiment: NCI tumour cell line growth inhibition, 48 h
Active and inactive are the calls of the source. No stated cut-off is given here; in the data, active = GI50 up to about 1.1 µM and inactive = higher.
Outcome codes: yes for active, no for inactive

* Cc1c2c(OCC(O)CN3CCN(c4ccccc4)CC3)nn(C)c(=O)c2c(C)n1-c1ccccc1 (centres undefined) | no
* O=C1c2scnc2-c2nccc3c2c1nc1ccccc13 | yes
* CCOC(=O)/C=C(\C)Sc1cc(O)c2ccccc2c1O | no
* Cc1c(C#N)c2nnn(-c3ccc(Cl)cc3)c(=O)n2c1-c1ccccc1 | yes
* CNC(=O)/C=C/C1=CN2C(=O)c3ccc(C)c(O)c3NC(OC)C2C1 (centres undefined) | yes
* CC1(c2nc3cc(Cl)c(Cl)cc3[nH]2)CCC(CO)C(C)(C)O1 (centres undefined) | no
* N#CCc1nc(Cc2ccccc2)n[nH]1 | no
* O=C(Nc1ccccc1-c1n[nH]c(S)nc1=O)C(F)(F)F | no
* CC(=O)Oc1ccn2nc(C)c(Cc3c(C)nn4ccc(OC(C)=O)cc34)c2c1 | no
* CN(C)CCCNc1c2ccccc2nc2cccc([N+](=O)[O-])c12 | yes
* CC(C)[Si]1(C(C)C)OCC2OC(N3C(=O)NC(=O)C[C@@H]3C(O)c3ccccc3)CC2O[Si](C(C)C)(C(C)C)O1 (some centres undefined) | no
* COC(=O)C1=C(CCC[C@H](C)O[Si](C)(C)C(C)(C)C)NC(=O)N2[C@@H](CCO)CC[C@H]12 | no
* CC(=O)O[C@H]1CC[C@@]2(C)C(=CC[C@@H]3[C@@H]2CC[C@]2(C)c4c(C)n[nH]c4C[C@@H]32)C1 | no
* Cn1cnc2c1c(=O)n(CCNCCO)c(=O)n2C | no
* Cc1ccc(C2=Nn3c(nc4sc(C)c(C)c4c3=O)SC2)cc1 | no
* CC1CCC2(CC1)NN=c1s/c(=C\c3ccc(O)cc3)c(=O)n1N2 (centres undefined) | no
* CCN(CC)c1ccc(/C=C/c2ccnc3ccccc23)cc1 | no
* CCC(C)[C@@H](NC1=C(Cl)C(=O)c2c(O)ccc(O)c2C1=O)C(=O)OC (some centres undefined) | no
* COc1ccccc1CNCc1nc2ccccc2[nH]1 | no

---

test system: UO-31; assay: NCI tumour cell line growth inhibition, 48 h
The source made the active and inactive calls. Rule as the data show it: active = GI50 up to about 1.1 µM and inactive = higher.
Each record here notes measured GI50.
metric.name: GI50

• c1ccc2c3c([nH]c2c1)C1c2[nH]c4ccccc4c2CCN1CC3 = 5.62 µM (inactive)
• C=C(O)c1ccccc1C#Cc1ccccc1C(=O)OC = > 10 µM (inactive)
• O=C1c2ccccc2C(=O)c2c(Nc3cc4c5c(ccc6c7ccc8c9c(cc(Nc%10cccc%11c%10C(=O)c%10ccccc%10C%11=O)c(c3c56)c97)-c3ccccc3C8=O)C(=O)c3ccccc3-4)cccc21 = 84.5 µM (inactive)
• NS(=O)(=O)c1cc(Br)c(/N=N\c2ccc(O)c3ncccc23)c(Br)c1 = 21.3 µM (inactive)
• C[C@@H]1CCC([C@@H](C)[C@H]2CC[C@H]3[C@@H]4CC[C@H]5C[C@@H](O)CC[C@]5(C)[C@H]4CC[C@]23C)=NC1 = 10.4 µM (inactive)
• CCOC(=O)C1=C(O)C2C3CC4C2C(O)=C(C(=O)OCC)C2C1C3C42 (configuration not stated) = > 100 µM (inactive)
• COc1ccccc1CNCc1nc2ccccc2[nH]1 = > 100 µM (inactive)

---

test system: KM12; assay: NCI tumour cell line growth inhibition, 48 h
The source made the active and inactive calls. Cut-off read from the data, not from the text of the source: active = GI50 up to about 1.1 µM and inactive = higher.
Outcome codes: yes (1) = active, no (0) = inactive

• COC1(C)CC2N(C(=O)c3ccccc3)N=C(c3ccccc3)CC2(C)O1 (stereo not given) = no (0)
• CCCC1CCC(=C2C(=O)CCC2=O)O1 (stereo not given) = no (0)
• COc1cc2c3c(cc(Cl)nc3c1OC)C(=O)C(=O)N2 = no (0)
• CCN(C(=O)N[C@@H](C)C(=O)N[C@@H](Cc1ccccc1)C(=O)OC)c1ccccc1 = no (0)
• CN(C)CCNc1ccc2c(=O)n(CCN(C)C)c(=O)n3c4ccccc4c(=O)c1c23 = yes (1)

---

tested on: ACHN; test: NCI tumour cell line growth inhibition, 48 h
The source made the active and inactive calls. Rule as the data show it: active = GI50 up to about 1.1 µM and inactive = higher.
Possible outcomes: T (active), F (inactive)

• c1ccc2c3c([nH]c2c1)C1c2[nH]c4ccccc4c2CCN1CC3 = F
• CC1(C)OC2C(CO)OC(N/C(=N/C#N)Oc3ccccc3)C2O1 (stereo not drawn) = F
• Cc1ccc(NC(=O)SCCC(=O)O)cc1 = F
• CC(=O)O[C@H]1CC[C@@]2(C)C(=CC[C@@H]3[C@@H]2CC[C@]2(C)c4c(C)n[nH]c4C[C@@H]32)C1 = F
• COc1ccc(/C(CC2OC(=O)c3ccccc32)=N\NC(=O)C[N+](C)(C)C)cc1 (stereo not drawn) = F
• Cc1nn(C(=O)Cc2ccccc2)c2c1C(c1ccc3ccccc3c1O)SC(=N)N2 (stereo not drawn) = F
• O=S(=O)(c1ccccc1)C1CN2OC1(S(=O)(=O)c1ccccc1)CC2c1ccc(Br)cc1 (stereo not drawn) = F
• CN1CCOC(c2ccccc2)O1 (stereo not drawn) = F
• Nc1ccc(Cn2ccc3c4c(N)nc(N)nc4ccc32)cc1 = T
• O=C1CC2CC=C[C@H]3c4cc5c(cc4C(=O)N1C23)OCO5 (stereo partly drawn) = F
• Cc1n[nH]c(=O)n1/N=C/c1cccc(Cl)c1 = F
• CCCCCCCCCCCOC(=S)NC(C)C = F
• COC(=O)C1=C(\O)C[C@@]2(C)CC[C@@H](C(=O)OC)C2C/C=C\1C(=O)OC (stereo partly drawn) = F
• O=[N+]([O-])c1ccc(-c2ccc(-c3csc(Nc4ccccn4)n3)o2)cc1 = F
• O=S1(=O)OCCCOS(=O)(=O)C1Br = F
• CC(C)(C)OC(=O)NC(Cc1ccc(O)cn1)C(N)=O (stereo not drawn) = F
• O=C1c2ccccc2S(=O)(=O)c2ccccc21 = F
• CCOC(=O)/C=C(\C)Sc1cc(O)c2ccccc2c1O = F

---

test system: EKVX; test: NCI tumour cell line growth inhibition, 48 h
Calls of active or inactive are those of the source. Rule as the data show it: active = GI50 up to about 1.1 µM and inactive = higher.
Possible outcomes: active, inactive

• CCOC(=O)[C@@]12C(C)=CC(=O)O[C@]1(C)C[C@H]2C#N = inactive
• CCSC(=O)N1c2ccc(OC)cc2C=CC1C#N (configuration not stated) = active
• CCC1CN(C(=O)c2ccccc2)C(Cc2c[nH]c3ccccc23)C(=O)C1CC(=O)OC (configuration not stated) = inactive
• CC(=O)O[C@H]1CC[C@@]2(C)C(=CC[C@@H]3[C@@H]2CC[C@]2(C)c4c(C)n[nH]c4C[C@@H]32)C1 = inactive
• O=C1C(c2ccccc2)=C(c2ccccc2)C(c2ccc(-c3ccc(C4=C(c5ccccc5)C(=O)C(c5ccccc5)=C4c4ccccc4)cc3)cc2)=C1c1ccccc1 = inactive
• N#CCCN(c1ccc(/C=N/c2ccccc2)cc1)S(=O)(=O)c1ccccc1 = inactive
• COc1cc([C@@H]2OC[C@@H]3C(c4cc(OC)c5c(c4)OCO5)OC[C@@H]32)cc(OC)c1OC (some centres not stated) = inactive
• CCCCNC(=NC#N)NCCCC = inactive
• CC(C)(C)c1cc(CC2C(=O)c3ccccc3C2=O)cc(C(C)(C)C)c1O = inactive
• O=[N+]([O-])c1ccc(/C=C/c2ccc(/N=N/c3ccc(/C=C/c4ccc([N+](=O)[O-])cc4S(=O)(=O)O)c(S(=O)(=O)O)c3)cc2S(=O)(=O)O)c(S(=O)(=O)O)c1 = inactive
• N#Cc1cccc(C2ON=C(c3ccc([N+](=O)[O-])cc3)N2C23CC4CC(CC(C4)C2)C3)c1 (configuration not stated) = inactive
• O=C(C1OC1c1ccc([N+](=O)[O-])cc1)C12CC3CC(CC(C3)C1)C2 (configuration not stated) = inactive

---

system: Malme-3M; test: NCI tumour cell line growth inhibition, 48 h
Activity calls are given as the source filed them. Rule as the data show it: active = GI50 up to about 1.1 µM and inactive = higher.
Outcome codes: active, inactive

• CNC(=O)/C=C/C1=CN2C(=O)c3ccc(C)c(O)c3NC(OC)C2C1 (centres undefined) = active
• O=C(O)/C=C/C(=O)N1Cc2cc3ccccc3nc2C1 = inactive
• Cc1c(C#N)c2nnn(-c3ccc(Cl)cc3)c(=O)n2c1-c1ccccc1 = active
• CCCCCCCCCCCCCC(=S)N/C=C/OC = inactive
• O=C(N/N=C/c1cc(Cl)cc(Cl)c1O)c1ccncc1 = inactive
• O=c1nc2n(c3nsnc13)CCO2 = inactive
• CC(=O)Oc1c(OC(C)C)cc(=O)n2ccsc12 = inactive
• CC[n+]1c(-c2ccccc2)c2cc(N)ccc2c2ccc(N)cc21 = inactive
• CN(C)CCNc1ccc(CO)c2sc3ccc(O)cc3c(=O)c12 = inactive
• CCOCC(=O)N[C@H]1CCc2cc(OC(=O)COCC)c(OC)c(OC)c2-c2ccc(SC)c(=O)cc21 = active
• O=S1(=O)OCCCOS(=O)(=O)C1Br = inactive
• COC1(C)CC2N(C(=O)c3ccccc3)N=C(c3ccccc3)CC2(C)O1 (centres undefined) = inactive
• O=C(Nc1cccc([N+](=O)[O-])c1)c1nnn(-c2cccc([N+](=O)[O-])c2)c1O = inactive
• O=C1c2ccccc2-c2nnc(-c3ccc(Cl)cc3)cc21 = inactive
